// values below are reported pest or weed control at 500 ppm
system: Phakopsora pachyrhizi; experiment: Phakopsora pachyrhizi test in soybean, greenhouse, preventive activity; assay type: in vivo, Phakopsora pachyrhizi on soybean plants; conditions: 24 h, spray one day before inoculation, soybean plants, read-out: control (efficacy, disease severity rating versus untreated control)

>  <compound>
O=C(Cc1cn(-c2ccc(-c3noc(C(F)(F)F)n3)cc2)cn1)Nc1ccc(Cl)cc1 [Compound 9]

>  <pest or weed control at 500 ppm>
≤ 70%

$$$$
>  <compound>
CS(=O)(=NC(=O)c1ccn(-c2ccc(-c3noc(C(F)(F)F)n3)cc2)c1)c1ccc(F)cc1 (stereo not shown) [Compound 27]

>  <pest or weed control at 500 ppm>
≤ 70%

$$$$
>  <compound>
CS(C)(=O)=NC(=O)c1ccn(-c2ccc(-c3noc(C(F)(F)F)n3)cc2)c1 [Compound 30]

>  <pest or weed control at 500 ppm>
≤ 70%

$$$$

API: the following record is the query input.
Tell me reported pest or weed control at 500 ppm for O=C(Cc1cn(-c2ccc(-c3noc(C(F)(F)F)n3)cc2)cn1)Nc1ccccc1Br [Compound 14] , tested with Phakopsora pachyrhizi.
≤ 70%
